Data provenance: patent US5968526A

- Tested on: PBMC from mite-allergic patient
- METHOD NOTES: primary T cell (PBMC) proliferation, mite-allergic patient, tritiated thymidine
- Type: cell-based, human
- EXPERIMENTAL PARAMETERS: 10 μg/ml; medium 1071 ± 30
- Experimental: Peripheral blood mononuclear cells (PBMC) were purified by Ficoll-Hypaque centrifugation of a peripheral blood specimen from mite-allergic patient and were assayed for proliferation in response to various antigens, i.e., affinity-purified Der p I, affinity purified Der p II, various Der p I and Der p II peptides. For assay, 5×10^4 PBMC were cultured in triplicate microwells for 7 days at 37° C. in the presence of various concentrations of antigen in 200 μl RPMI-1640 containing 5% human AB serum. […]
MEASURED QUANTITY: CPM ± S.D. (CPM)
Provide only the numeric value, understood in CPM.

INPUT: I would be grateful if you could share the reported CPM ± S.D. for DP I-8: Der p I peptide (IKDLDAFRHYDGTRIIQRDNGYQPNY) .
OUTPUT: 1439

INPUT: DP I-10: Der p I peptide (QGVDYWIVRNSWDTNWGDNGYGYF) , same question.
OUTPUT: 1936

INPUT: DP I-2: Der p I peptide (EIDLRQMRTVTPIRMQGGCGSCWAFSG) , same question.
OUTPUT: 1395

INPUT: DP I-3: Der p I peptide (TVTPIRMQGGCGSCWAFSGVAATESAYLA) , same question.
OUTPUT: 2608

INPUT: DP II-4: Der p II peptide (QLEAVFEANQNTKTAKIEIKASIDG) , same question.
OUTPUT: 2126

INPUT: DP II-9: Der p II peptide (VVTVKVMGDDGVLACAIATHAKIRD) , same question.
OUTPUT: 3970

INPUT: DP I-1: Der p I peptide, amino acid residues 1-20 (TNACSINGNAPAEIDLRQMR) , same question.
OUTPUT: 1099
